System: NCI-H460
test-method-notes: Cytotoxicity against human NCI-H460 cells assessed as reduction in cell viability after 2 hrs in presence of PF477736 by Alamar blue assay
Type: functional, cell-based
experimental-parameters: NCI-H460, 2 h
attribute-measured: IC50 (mM)
State the answer as a number, implicitly in mM.

Consider the molecule Cn1c(COP(=O)(NCCCl)NCCCl)cnc1[N+](=O)[O-] and give its measured IC50.
19

====

System: HT-29
test-method-notes: Cytotoxicity against human HT-29 cells assessed as reduction in cell viability after 2 hrs in presence of LY2603618 by Alamar blue assay
Assay type: functional, cell-based
experimental-parameters: HT-29, 2 h
attribute-measured: IC50 (mM)
State the answer as a number, implicitly in mM.

Consider the compound Cn1c(COP(=O)(NCCCl)NCCCl)cnc1[N+](=O)[O-] and give its measured IC50.
46

====

System: HT-29
test-method-notes: Cytotoxicity against human HT-29 cells assessed as reduction in cell viability after 2 hrs in presence of AZD7765 by Alamar blue assay
Type: functional, cell-based
experimental-parameters: HT-29, 2 h
attribute-measured: IC50
In your response, put the unit directly after the numeric value.

Consider the molecule Cn1c(COP(=O)(NCCCl)NCCCl)cnc1[N+](=O)[O-] and give its measured IC50.
39 mM

====

Here's what we have: IC50 numbers for Epidermal growth factor receptor (Homo sapiens, UniProt P00533).

Cn1cc([N+](=O)[O-])nc1C[N+](C)(C)C/C=C/C(=O)Nc1ccc2ncnc(Nc3cccc(Br)c3)c2c1 = 0.22 to 0.56 nM
C[N+](C)(C/C=C/C(=O)Nc1ccc2ncnc(Nc3cccc(Br)c3)c2c1)Cc1ccc([N+](=O)[O-])cc1 = 0.22 to 0.56 nM

I'm curious: which IC50 was measured for Cn1cnc([N+](=O)[O-])c1C[N+](C)(C)C/C=C/C(=O)Nc1ccc2ncnc(Nc3cccc(Br)c3)c2c1 tested on Epidermal growth factor receptor (Homo sapiens, UniProt P00533)?
0.22 to 0.56 nM
